assay: qHTS Assay for Lipid Storage Modulators in Drosophila S3 Cells; settings: BODIPY lipid droplet fluorescence, 18-24 h, cells fed with added oleic acid; series mostly up to 46.1 µM
Screen size: about 320,000 compounds; about 2,100 (0.66%) were called active. Another 53% or so got no clear call; they are omitted. Calls follow the shape of the dose curve; as a rule, active = well fitted inhibition curve with a large enough effect in the signal ratio, with a control signal flat (not every such curve was filed as active); inconclusive = small, poorly fitted or top-dose-only effect, or effect the other way, or a change in a side signal; inactive = flat fitted curve, though single readings scatter; the % refers to the signal ratio. Many of the other results were omitted from the sample, so actives are more common in it than they were.
Possible outcomes: active, inactive

• S=c1[nH]nc(-c2cccs2)n1/N=C/c1cn(-c2ccccc2)nc1-c1ccccc1 = inactive
• Cc1noc(C)c1COc1ccc(C(=O)O)cc1 = inactive
• CCOc1ccc(CCNC(=O)c2cccc(-n3cnnn3)c2)cc1OCC = active
• CCOC(=O)CN(C(=O)CSc1nnc(-c2ccncc2)n1CCCOC)c1ccccc1 = inactive
• CCOc1ccc(CCNC(=O)c2cccc(S(=O)(=O)N3CCN(C(C)=O)CC3)c2)cc1OCC = inactive

Origin of measurements: PubChem BioAssay AID2685
